assay-target: binding partner of C5A (XPA23)
experiment-description: Biacore K-off
Each entry below carries its recorded fold difference in affinity vs original.

binder	endpoint-unit	fold difference in affinity vs original
C5A (XPA23) VL S93T (antibody, V domains shown) VH: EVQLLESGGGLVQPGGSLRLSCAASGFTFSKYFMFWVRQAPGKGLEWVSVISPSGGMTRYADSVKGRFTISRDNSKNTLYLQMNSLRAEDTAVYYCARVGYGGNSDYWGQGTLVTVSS VL: DIQMTQSPSSVSASVGDRLTIICRASQDINRWLAWYQQTPGNAPKLLIHSATSLQSGVPSRFSGSGSGTDFTLTINSLQPEDFATYYCQQADTFPLTFGGGTKVEIK	fold	1.47
C5A (XPA23) VL L96I (antibody, V domains shown) VH: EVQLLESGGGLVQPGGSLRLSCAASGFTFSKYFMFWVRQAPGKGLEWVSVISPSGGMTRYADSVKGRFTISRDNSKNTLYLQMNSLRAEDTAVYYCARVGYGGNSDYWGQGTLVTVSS VL: DIQMTQSPSSVSASVGDRLTIICRASQDINRWLAWYQQTPGNAPKLLIHSATSLQSGVPSRFSGSGSGTDFTLTINSLQPEDFATYYCQQADSFPITFGGGTKVEIK	fold	0.67
C5A (XPA23) VL T52E (antibody, V domains shown) VH: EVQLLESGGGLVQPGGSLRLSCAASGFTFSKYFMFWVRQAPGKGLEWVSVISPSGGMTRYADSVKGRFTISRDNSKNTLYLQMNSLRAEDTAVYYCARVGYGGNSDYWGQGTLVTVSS VL: DIQMTQSPSSVSASVGDRLTIICRASQDINRWLAWYQQTPGNAPKLLIHSAESLQSGVPSRFSGSGSGTDFTLTINSLQPEDFATYYCQQADSFPLTFGGGTKVEIK	fold	0.61
